IC50 reference
- Test system: human A549 cells
- Protocol Summary: Inhibition test of PGE2 production using human A549 cells
- Assay type: cell-based
- Applied Conditions: IL-1β stimulated A549 cells, 24 h, PGE2 by HTRF, read-out: A549 cell inhibition of PGE2 production IC50
Reply numerically in nM, unit not repeated.

INSERT INTO results (molecule, unit_string, reported) VALUES
  ('Cc1cncc(-n2ncc3c(NC(=O)c4cc(CNC(=O)C(C)(C)C)ccc4C(F)(F)F)cccc32)c1', 'nM', 3.5),
  ('O=C(Nc1cccc2c1cnn2-c1ccc(C(F)(F)F)cc1)c1cc(CNC(=O)[C@H]2CC[C@H](O)CC2)ccc1Cl', 'nM', 5.1),
  ('CC(C)(C)C(=O)NCc1ccc(Cl)c(C(=O)Nc2cccc3c2cnn3-c2cccc(OC(F)(F)F)c2)c1', 'nM', 0.6);

# IC50 of "Cc1ccc(-n2ncc3c(NC(=O)c4cc(CNC(=O)CC(C)(C)C)ccc4Cl)cccc32)cc1C(F)(F)F" = 0.7

###

inhibition at 0.1 µM reference
- Assay System: human mPGES-1 (Homo sapiens (Human), UniProt O14684)
- Sequence (O14684 whole entry): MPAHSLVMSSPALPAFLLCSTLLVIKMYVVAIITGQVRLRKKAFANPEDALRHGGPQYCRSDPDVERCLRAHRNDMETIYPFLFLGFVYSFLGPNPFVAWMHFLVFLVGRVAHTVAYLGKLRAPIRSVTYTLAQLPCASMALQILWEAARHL
- Protocol Summary: mPGES-1 inhibitory activity test
- Assay type: biochemical
- Applied Conditions: 100 nM test compound
Reply numerically in %, unit not repeated.

INSERT INTO measurements (molecule, unit_string, reported) VALUES
  ('CC(C)(C)CC(=O)NCc1ccc(Cl)c(C(=O)Nc2cccc3c2cnn3-c2cccc(OC(F)F)c2)c1 [Example 138]', '%', 100);

# inhibition at 0.1 µM of COc1ccc(-n2ncc3c(NC(=O)c4cc(CNC(=O)C5CCCC5)ccc4Cl)cccc32)cc1C(F)(F)F [Example 262] = 94

# inhibition at 0.1 µM of Cc1ccc(-n2ncc3c(NC(=O)c4cc(CNC(=O)C5(O)CC5)ccc4Cl)cccc32)cc1C(F)(F)F [Example 257] = 96

# inhibition at 0.1 µM of O=C(Nc1cccc2c1cnn2-c1cccc(C(F)(F)F)c1)c1cc(CNC(=O)C2CCCC2)ccc1Cl [Example 219] = 93

# inhibition at 0.1 µM of O=C(Nc1cccc2c1cnn2-c1ccc(F)cc1)c1cc(CNC(=O)C2(O)CC2)ccc1Cl [Example 154] = 89

# inhibition at 0.1 µM of O=C(Nc1cccc2c1cnn2-c1cccc(OC(F)F)c1)c1cc(CNS(=O)(=O)C2CC2)ccc1Cl [Example 144] = 100

###

- Assay System: human mPGES-1 (Homo sapiens (Human), UniProt O14684)
- Protocol Summary: mPGES-1 inhibitory activity test
- Type: biochemical
- Applied Conditions: 10 nM test compound
Recorded Endpoint: inhibition at 0.01 µM (%)
Reply numerically in %, unit not repeated.

# inhibition at 0.01 µM of O=C(Nc1cccc2c1cnn2-c1ccc(F)cc1)c1cc(CNC(=O)C2(C(F)(F)F)CC2)ccc1Cl [Example 153] = 100

# inhibition at 0.01 µM of CC(C)(CO)C(=O)NCc1ccc(Cl)c(C(=O)Nc2cccc3c2cnn3-c2cccc(OC(F)F)c2)c1 [Example 143] = 92

# inhibition at 0.01 µM of CC(C)(C)C(=O)NCc1ccc(Cl)c(C(=O)Nc2cccc3c2cnn3C2CC2)c1 [Example 284] = 79

# inhibition at 0.01 µM of COc1cc(-n2ncc3c(NC(=O)c4cc(CNC(=O)CC(C)(C)C)ccc4Cl)cccc32)ccn1 [Example 159] = 55

# inhibition at 0.01 µM of Cc1cc(-n2ncc3c(NC(=O)c4cc(CNC(=O)C5CCCC5)ccc4Cl)cccc32)ccn1 [Example 235] = 53

# inhibition at 0.01 µM of Cc1ccc(-n2ncc3c(NC(=O)c4cc(CNS(=O)(=O)C5CC5)ccc4Cl)cccc32)nn1 [Example 253] = 67

# inhibition at 0.01 µM of Cc1ccc(-n2ncc3c(NC(=O)c4cc(CNC(=O)CC(C)(C)C)ccc4Cl)cccc32)cc1C(F)(F)F [Example 254] = 100
